- System: NCI-H226
- EXPERIMENT_SUMMARY: Growth inhibition of human NCI-H226 cells at 10 uM after 48 hrs by SRB assay relative to control
- Assay type: functional
- TEST_PARAMETERS: NCI-H226, 48 h, read-out: GI
READOUT_NAME: inhibition of growth at 10 µM (%)
Write the value in % as a bare number.

COc1cc(NC(=O)c2cccc(-c3cc(=O)c4c(O)c(OC)c(OC)cc4o3)c2)cc(OC)c1OC ... 92.3
COc1cc2oc(-c3cccc(NC(=O)c4ccc5c(c4)OCO5)c3)cc(=O)c2c(O)c1OC ... 55.4
COc1cc2oc(-c3cccc(NC(=O)c4ccc5c(c4)OCO5)c3)cc(=O)c2c(OC)c1OC ... 34.3
COc1ccc(NC(=O)c2cccc(-c3cc(=O)c4c(O)c(OC)c(OC)cc4o3)c2)cc1 ... 8.07

Now for the molecule whose inhibition of growth at 10 µM we want.
Look up inhibition of growth at 10 µM: `COc1cccc(NC(=O)c2cccc(-c3cc(=O)c4c(O)c(OC)c(OC)cc4o3)c2)c1`
41.5

====

- System: KM12
- EXPERIMENT_SUMMARY: Growth inhibition of human KM12 cells at 10 uM after 48 hrs by SRB assay relative to control
- Assay type: functional
- TEST_PARAMETERS: KM12, 48 h, read-out: GI
Attribute: inhibition of growth at 10 µM
Kindly provide the numeric value in % only, without the unit symbol.

Query (compound): `COc1cc2oc(-c3cccc(C(=O)Nc4ccc5c(c4)OCO5)c3)cc(=O)c2c(O)c1OC` ; field requested: inhibition of growth at 10 µM
29.4

====

- System: MDA-MB-468
- EXPERIMENT_SUMMARY: Growth inhibition of human MDA-MB-468 cells at 10 uM after 48 hrs by SRB assay relative to control
- Format: functional
- TEST_PARAMETERS: MDA-MB-468, 48 h, read-out: GI
READOUT_NAME: inhibition of growth at 10 µM (%)
Give just the numeric value; % need not be written.

Some compounds with recorded inhibition of growth at 10 µM:
COc1ccccc1NC(=O)c1cccc(-c2cc(=O)c3c(O)c(OC)c(OC)cc3o2)c1 ... 9.38
COc1cc2oc(-c3cccc(NC(=O)c4ccccc4)c3)cc(=O)c2c(OC)c1OC ... 15.8
COc1cc2oc(-c3cccc(NC(=O)c4ccc5c(c4)OCO5)c3)cc(=O)c2c(O)c1OC ... 17.6
COc1cc(NC(=O)c2cccc(-c3cc(=O)c4c(OC)c(OC)c(OC)cc4o3)c2)cc(OC)c1OC ... 52.6
COc1ccccc1C(=O)Nc1cccc(-c2cc(=O)c3c(OC)c(OC)c(OC)cc3o2)c1 ... 60.8

Requested field: inhibition of growth at 10 µM. Item: `COc1cc2oc(-c3cccc(C(=O)Nc4ccc5c(c4)OCO5)c3)cc(=O)c2c(O)c1OC`
45.4

Could you do the same for `COc1cc(NC(=O)c2cccc(-c3cc(=O)c4c(O)c(OC)c(OC)cc4o3)c2)cc(OC)c1OC` , please?
40.1

Another: `COc1cccc(C(=O)Nc2cccc(-c3cc(=O)c4c(O)c(OC)c(OC)cc4o3)c2)c1`
28.8

Entry `COc1ccccc1C(=O)Nc1cccc(-c2cc(=O)c3c(O)c(OC)c(OC)cc3o2)c1` please
-22.9

====

- Tested on: HL-60(TB)
- EXPERIMENT_SUMMARY: Growth inhibition of human HL-60(TB) cells at 10 uM after 48 hrs by SRB assay relative to control
- Assay type: functional
- TEST_PARAMETERS: HL-60, 48 h, read-out: GI
The threshold is inclusive: inhibition of growth at 10 µM of exactly 10% counts as class 1; values below receive class 0.

Some entries whose results are on file:
COc1cc2oc(-c3cccc(C(=O)Nc4ccccc4)c3)cc(=O)c2c(O)c1OC ... class 0
COc1cc2oc(-c3cccc(NC(=O)c4ccccc4)c3)cc(=O)c2c(OC)c1OC ... class 1
COc1cc2oc(-c3cccc(C(=O)Nc4ccccc4)c3)cc(=O)c2c(OC)c1OC ... class 1
COc1ccc(C(=O)Nc2cccc(-c3cc(=O)c4c(O)c(OC)c(OC)cc4o3)c2)cc1 ... class 1
COc1ccccc1C(=O)Nc1cccc(-c2cc(=O)c3c(OC)c(OC)c(OC)cc3o2)c1 ... class 1
COc1ccccc1NC(=O)c1cccc(-c2cc(=O)c3c(O)c(OC)c(OC)cc3o2)c1 ... class 0
COc1ccccc1C(=O)Nc1cccc(-c2cc(=O)c3c(O)c(OC)c(OC)cc3o2)c1 ... class 0

Kindly consider the entry below.
Decide: inhibition of growth at 10 µM of `COc1cccc(C(=O)Nc2cccc(-c3cc(=O)c4c(O)c(OC)c(OC)cc4o3)c2)c1` >= 10%?
class 1

====

Reported inhibition of growth at 10 µM values for the following compounds.
- System: HOP-62
- EXPERIMENT_SUMMARY: Growth inhibition of human HOP62 cells at 10 uM after 48 hrs by SRB assay relative to control
- Assay type: functional
- TEST_PARAMETERS: HOP-62, 48 h, read-out: GI
Answer format: value, then unit.

COc1ccccc1NC(=O)c1cccc(-c2cc(=O)c3c(O)c(OC)c(OC)cc3o2)c1 ... 0.21%

Data request, read-out inhibition of growth at 10 µM, for `COc1cccc(NC(=O)c2cccc(-c3cc(=O)c4c(O)c(OC)c(OC)cc4o3)c2)c1`
37.5%

Also, `COc1ccccc1NC(=O)c1cccc(-c2cc(=O)c3c(OC)c(OC)c(OC)cc3o2)c1` please.
30.6%

Next entry: `COc1cc(NC(=O)c2cccc(-c3cc(=O)c4c(OC)c(OC)c(OC)cc4o3)c2)cc(OC)c1OC`
62.5%

Check `COc1ccc(C(=O)Nc2cccc(-c3cc(=O)c4c(O)c(OC)c(OC)cc4o3)c2)cc1` too.
30.2%

====

- Tested on: SF-268
- EXPERIMENT_SUMMARY: Growth inhibition of human SF268 cells at 10 uM after 48 hrs by SRB assay relative to control
- Assay type: functional
- TEST_PARAMETERS: SF-268, 48 h, read-out: GI
Label scheme for inhibition of growth at 10 µM: lower than 40% is n, 40% and above is y.

Past entries and their recorded results:
COc1cc2oc(-c3cccc(C(=O)Nc4ccc5c(c4)OCO5)c3)cc(=O)c2c(OC)c1OC ... n
COc1ccccc1NC(=O)c1cccc(-c2cc(=O)c3c(OC)c(OC)c(OC)cc3o2)c1 ... n
COc1cc2oc(-c3cccc(C(=O)Nc4ccc5c(c4)OCO5)c3)cc(=O)c2c(O)c1OC ... y
COc1cc2oc(-c3cccc(C(=O)Nc4ccccc4)c3)cc(=O)c2c(O)c1OC ... y
COc1ccccc1C(=O)Nc1cccc(-c2cc(=O)c3c(OC)c(OC)c(OC)cc3o2)c1 ... y
Cc1ccc(NC(=O)c2ccc(CN3CCN(C)CC3)cc2)cc1Nc1nccc(-c2cccnc2)n1 ... n
COc1cccc(NC(=O)c2cccc(-c3cc(=O)c4c(O)c(OC)c(OC)cc4o3)c2)c1 ... n
COc1ccc(C(=O)Nc2cccc(-c3cc(=O)c4c(OC)c(OC)c(OC)cc4o3)c2)cc1 ... y
COc1cc(NC(=O)c2cccc(-c3cc(=O)c4c(O)c(OC)c(OC)cc4o3)c2)cc(OC)c1OC ... n
COc1ccc(NC(=O)c2cccc(-c3cc(=O)c4c(OC)c(OC)c(OC)cc4o3)c2)cc1 ... n

Decide: inhibition of growth at 10 µM of `COc1ccccc1NC(=O)c1cccc(-c2cc(=O)c3c(O)c(OC)c(OC)cc3o2)c1` >= 40%?
n

Entry `COc1cccc(C(=O)Nc2cccc(-c3cc(=O)c4c(O)c(OC)c(OC)cc4o3)c2)c1` please
n

====

- Test system: HL-60(TB)
- EXPERIMENT_SUMMARY: Growth inhibition of human HL-60(TB) cells at 10 uM after 48 hrs by SRB assay relative to control
- Type: functional
- TEST_PARAMETERS: HL-60, 48 h, read-out: GI
Each entry below carries its recorded inhibition of growth at 10 µM.
Express the result in % but write the number alone.

Field: example entries. Status: answers known.
COc1cccc(NC(=O)c2cccc(-c3cc(=O)c4c(O)c(OC)c(OC)cc4o3)c2)c1 ... 17.5
COc1ccc(NC(=O)c2cccc(-c3cc(=O)c4c(OC)c(OC)c(OC)cc4o3)c2)cc1 ... 21.2
COc1cc(NC(=O)c2cccc(-c3cc(=O)c4c(O)c(OC)c(OC)cc4o3)c2)cc(OC)c1OC ... 22

Can you look up inhibition of growth at 10 µM on HL-60(TB) for `COc1cc2oc(-c3cccc(NC(=O)c4ccc5c(c4)OCO5)c3)cc(=O)c2c(O)c1OC` ?
14

# iterate: `COc1cc2oc(-c3cccc(NC(=O)c4ccc5c(c4)OCO5)c3)cc(=O)c2c(OC)c1OC`
65.4
